Please respond with reported cell viability for every item in the list.
Test system: SEM cells
EXPERIMENT: cell viability relative to DMSO control; higher = less cytotoxic
TEST_PARAMETERS: RPMI 5 mM glucose + 10% dialyzed FBS; 48 h; 0.19 µM
One number for each entry, in %.

Report cell viability for every entry below.
1. N[S+](=O)([O-])c1cc2c(cc1Cl)NC(C(Cl)Cl)N[S+]2(=O)[O-] (stereo not given)
2. COc1ccc(C(=O)c2c(C)n(CCN3CCOCC3)c3ccccc23)cc1
3. Cc1cn([C@H]2C=C[C@@H](CO)O2)c(=O)[nH]c1=O
4. COc1cccc2c1C(=O)c1c(O)c3c(c(O)c1C2=O)C[C@@](O)(C(=O)CO)C[C@@H]3O[C@H]1C[C@H](N)[C@H](O[C@H]2CCCCO2)[C@H](C)O1
5. O=C(CCc1ccc(O)cc1)c1c(O)cc(O)cc1O

1: 122; 2: 97.4; 3: 96.4; 4: 115; 5: 105

---

Tested on: NOMO1
EXPERIMENT: AUC of viability dose-response curve (% viability x log10 dose units); higher = less sensitive
TEST_PARAMETERS: RPMI 5 mM glucose + 10% FBS; 48 h
Assignment: determine reported AUC of viability dose-response curve for the given molecules.
Numbers only.

Previously resolved entries follow.
Requested field: AUC of viability dose-response curve. Item: CC(C)N(C[C@H]1O[C@@H](n2cnc3c(N)ncnc32)[C@H](O)[C@@H]1O)[C@H]1C[C@@H](CCc2nc3cc(C(C)(C)C)ccc3[nH]2)C1
450

Given the molecule COc1cc(Nc2c(C#N)cnc3cc(OCCCN4CCN(C)CC4)c(OC)cc23)c(Cl)cc1Cl , what is its reported AUC of viability dose-response curve?
397

Find the recorded AUC of viability dose-response curve belonging to O=C(CCCCCCC(=O)Nc1ccc([C@H]2O[C@@H](CSc3nc(-c4ccccc4)c(-c4ccccc4)o3)C[C@@H](c3ccc(CO)cc3)O2)cc1)NO and report it.
406

So what's the measured AUC of viability dose-response curve for this one? CCN1C[C@H](C)[N]2C(=C(O)C3=C2\C(=N/N(CC4=CC=C(F)C(=C4)Cl)C3=O)C(=O)NC)C1=O
442

Consider the molecule N#Cc1ccc(Oc2ccc3c(c2)COB3O)cc1 and give its measured AUC of viability dose-response curve.
463

# get_value(readout='AUC of viability dose-response curve', item= N\C1=N\C2=C(N=C[N]2COCCO)C(=O)N1 )
461

Item under review: CC[C@@H]1C(=O)N(C)c2cnc(Nc3ccc(C(=O)NC4CCC(N5CCN(CC6CC6)CC5)CC4)cc3OC)nc2N1C(C)C (stereo not given in full) . Reported AUC of viability dose-response curve?
259

Given COc1ccc(COc2cc3oc(=O)c4cc(C(C)O)ccc4c3cc2OC)cc1 (stereo not given) , state its recorded AUC of viability dose-response curve.
449

Could you tell me AUC of viability dose-response curve for each of these molecules? They are listed below.
1. CC(C)OC(=O)C(C)(C)Oc1ccc(C(=O)c2ccc(Cl)cc2)cc1
2. C=C1C(=O)[C@@]23C(CC[C@@H]1[C@H]2O)[C@@]12CO[C@]3(O)[C@@H](O)[C@@H]1C(C)(C)CC[C@@H]2O (stereo not given in full)

459
444

Please state, for each entry, its recorded AUC of viability dose-response curve.
1. C[N]1C=C(C2=CC=CC=C12)\C3=C(\C(=O)NC3=O)C4=C[N](C5CCN(CC5)CC6=NC=CC=C6)C7=C4C=CC=C7
2. Cc1cn[nH]c1
3. NC(=O)Nc1sc(-c2ccc(F)cc2)cc1C(N)=O

1: 424; 2: 471; 3: 436

List the reported AUC of viability dose-response curve of each molecule below.
1. C[C@H]1C[C@H]2[C@@H]3CC[C@](O)(C(=O)CO)[C@@]3(C)C[C@H](O)[C@@H]2[C@@]\4(C)/C=C\C(=O)\C=C14
2. C[C@]12Cc3cn[nH]c3C[C@@H]1CC[C@@H]1[C@@H]2CC[C@@]2(C)[C@H]1CC[C@]2(C)O

1: 444; 2: 467

---

System: P12-Ichikawa
EXPERIMENT: cell viability relative to DMSO control; higher = less cytotoxic
TEST_PARAMETERS: HPLM + 10% dialyzed FBS; 48 h; 0.000781 µM
VALUE_KIND: cell viability (%)
Give bare numbers, in %.

Observe how each entry below is paired with its result.
Which measured cell viability value corresponds to C=C1C(=O)OC(CCCCCCCC)C1C(=O)O (stereo unspecified) ?
105

Sample CCOc1cc2ncc(C#N)c(Nc3ccc(OCc4ccccn4)c(Cl)c3)c2cc1NC(=O)/C=C/CN(C)C — what was its cell viability?
116

Which cell viability value is on record for O=C1CCC[C@@H]2[C@H]3CCCN4CCC[C@@H](CN12)[C@@H]34 ?
78.4

Item under review: N#CC(c1ccnc(NCCc2cccnc2)n1)c1nc2ccccc2s1 (stereo unspecified) . Reported cell viability?
115

Query: cell viability; subject: N#Cc1ccc(Oc2ccc3c(c2)COB3O)cc1
112

Shifting focus to the compound that follows.
Looking for the measured cell viability of CCc1cc2c(cc1N1CCC(N3CCOCC3)CC1)C(C)(C)c1[nH]c3cc(C#N)ccc3c1C2=O , can you help?
100

---

Tested on: P12-Ichikawa
EXPERIMENT: AUC of viability dose-response curve (% viability x log10 dose units); higher = less sensitive
TEST_PARAMETERS: RPMI 5 mM glucose + 10% dialyzed FBS; 48 h
Friendly reminder: AUC of viability dose-response curve below 400 is yes (1), at or above is no (0).

As a guide, the following entries are already answered.
Dear colleague, could you confirm whether AUC of viability dose-response curve of C[C@@H]1C/C=C/C=C/C=C/C=C/[C@@H](O[C@@H]2O[C@H](C)[C@@H](O)[C@H](N)[C@@H]2O)C[C@@H]2O[C@](O)(C[C@@H](O)C[C@@H]3O[C@H]3/C=C/C(=O)O1)C[C@H](O)[C@H]2C(=O)O falls below 400? Thanks.
no (0)

Say whether its AUC of viability dose-response curve is strictly beneath 400. Entry: CCOC(=O)C(C#N)C\1C2=CC(=CC=C2O\C(=C1C(=O)OCC)N)Br (stereo unspecified)
no (0)

Dear reviewer, please state whether C[C@H]1C[C@H]2[C@@H]3CC[C@](O)(C(=O)CO)[C@@]3(C)C[C@H](O)[C@@H]2[C@@]\4(C)/C=C\C(=O)\C=C14 has AUC of viability dose-response curve strictly beneath 400.
yes (1)

Decide: AUC of viability dose-response curve of Cc1nc2cc(C(=O)N3CCC4(CC3)CC(=O)c3c(cnn3C(C)C)C4)ccc2[nH]1 strictly below 400?
no (0)

Quick check: AUC of viability dose-response curve of N\C1=N\C2=C(N=C[N]2COCCO)C(=O)N1 under 400?
no (0)

Would you kindly verify if AUC of viability dose-response curve of COc1cc2ncn(-c3cc(OCc4ccccc4[S+](C)(=O)[O-])c(C#N)s3)c2cc1OC is strictly less than 400?
no (0)

Continuing:
hey, is AUC of viability dose-response curve for C[C@H](CCC(=O)O)[C@H]1CCC2C3C[C@H](O)[C@@H]4C[C@H](O)CC[C@]4(C)C3CC[C@@]21C (stereo partly specified) lower than 400 or not?
no (0)

AUC of viability dose-response curve under 400? Item: COc1ccc(C(CN(C)C)C2(O)CCCCC2)cc1 (stereo unspecified)
no (0)

---

Test system: P12-Ichikawa
EXPERIMENT: cell viability relative to DMSO control; higher = less cytotoxic
TEST_PARAMETERS: HPLM + 10% dialyzed FBS; 48 h; 0.569 µM
What cell viability was measured for each of the following?
Give bare numbers, in %.

Which cell viability reading was recorded for the compound O=S(=O)([O-])CCS.[Na+] ?
126

Dear colleague, could you please provide cell viability for the compounds listed below?
1. Cc1cc(OCCC[S+](C)(=O)[O-])cc(C)c1-c1cccc(COc2ccc3c(c2)OC[C@H]3CC(=O)O)c1
2. O=C(Nc1c[nH]nc1-c1nc2cc(CN3CCOCC3)ccc2[nH]1)NC1CC1
3. CCN1C[C@H](C)[N]2C(=C(O)C3=C2\C(=N/N(CC4=CC=C(F)C(=C4)Cl)C3=O)C(=O)NC)C1=O
4. N#CC(c1ccnc(NCCc2cccnc2)n1)c1nc2ccccc2s1 (stereo not drawn)
5. C/C(=N\NC(=S)N1CCC1)c1ccccn1
6. COc1cc(CCc2cc(NC(=O)c3ccc(N4C[C@@H](C)N[C@@H](C)C4)cc3)n[nH]2)cc(OC)c1
7. COC(=O)Nc1nc2cc(C(=O)c3ccc(F)cc3)ccc2[nH]1
8. O=C(CCc1ccc(O)cc1)c1c(O)cc(O)cc1O

97.4
23.9
111
131
5.61
120
78.2
110

Please report cell viability for every entry that follows.
1. C[N]1C=C(C2=CC=CC=C12)\C3=C(\C(=O)NC3=O)C4=C[N](C5CCN(CC5)CC6=NC=CC=C6)C7=C4C=CC=C7
2. c1ccc2c(Cc3c[nH]c4ccccc34)c[nH]c2c1
3. Cc1nn(C)c(COc2ccc(N3CCN([S+](=O)([O-])N(C)C)CC3)cc2)c1-c1cccc2c(CCCOc3cccc4ccccc34)c(C(=O)O)n(CCN3CCOCC3)c12
4. Clc1cccc(-n2nnnc2NCc2ccccc2Oc2ccccn2)c1Cl

[120, 95.1, 107, 133]
